B1: SLC2A12 (parent)
chain: LTLVFFVQITGQPNILFYASTVLK

variants of: B1; assay: protein stability index of a GFP-peptide fusion (GPS, HEK-293T) (PSI 1-6); higher = more stable; details: c terminus: a fixed tail appended;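 note: lentivirally expressed fusions sorted by FACS into six bins by GFP to DsRed ratio, PSI derived from sequencing read proportions per bin multiplied by bin number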
readout: protein stability index

variant_notation: I15W
numeric_result: 2.63

variant_notation: F5W
numeric_result: 3.59

variant_notation: Q12Y
numeric_result: 2.33

variant_notation: V22N
numeric_result: 2.78

variant_notation: I9G
numeric_result: 2.45

variant_notation: L1K
numeric_result: 2.96

variant_notation: Q8G
numeric_result: 2.93

variant_notation: F17A
numeric_result: 1.86

variant_notation: Y18N
numeric_result: 1.59

variant_notation: Y18L
numeric_result: 3.04

variant_notation: S20M
numeric_result: 2.78

variant_notation: V7A
numeric_result: 2.03

variant_notation: I15C
numeric_result: 2.48

variant_notation: F6D
numeric_result: 2.69

variant_notation: N14G
numeric_result: 3.5

variant_notation: G11V
numeric_result: 2.45

variant_notation: L16D
numeric_result: 2.58

variant_notation: T10P
numeric_result: 5.16

variant_notation: S20F
numeric_result: 4.03

variant_notation: L1N
numeric_result: 1.69

variant_notation: L3V
numeric_result: 4.79

variant_notation: T10A
numeric_result: 3.42

variant_notation: F17N
numeric_result: 2.66

variant_notation: V4N
numeric_result: 2.73

variant_notation: L3Y
numeric_result: 2.54

variant_notation: Q8A
numeric_result: 4.06

variant_notation: F5Q
numeric_result: 2.13

variant_notation: Q8E
numeric_result: 3.4

variant_notation: K24N
numeric_result: 4.33

variant_notation: T10Q
numeric_result: 1.31

variant_notation: Q8N
numeric_result: 3.92

variant_notation: T21Q
numeric_result: 2.97

variant_notation: P13S
numeric_result: 3.1

variant_notation: I15E
numeric_result: 2.91

variant_notation: N14E
numeric_result: 1.76

variant_notation: P13G
numeric_result: 5.6

variant_notation: Q8F
numeric_result: 3.87

variant_notation: Y18T
numeric_result: 2.31

variant_notation: I9S
numeric_result: 3.01

variant_notation: S20C
numeric_result: 2.27

variant_notation: L1Y
numeric_result: 2.85

variant_notation: N14H
numeric_result: 2.96

variant_notation: K24H
numeric_result: 2.21

variant_notation: V22Y
numeric_result: 3.57

variant_notation: F17W
numeric_result: 3

variant_notation: A19V
numeric_result: 2.66

variant_notation: I9W
numeric_result: 3.12

variant_notation: N14Q
numeric_result: 3.83

variant_notation: V7Y
numeric_result: 3.38

variant_notation: G11M
numeric_result: 3.38

variant_notation: P13K
numeric_result: 2.67

variant_notation: Q8K
numeric_result: 3.48

variant_notation: T2A
numeric_result: 2.61

variant_notation: I9A
numeric_result: 2.57

variant_notation: Q12D
numeric_result: 2.94

variant_notation: V22D
numeric_result: 3.37

variant_notation: G11T
numeric_result: 2.29

variant_notation: L1P
numeric_result: 2.54

variant_notation: L23Q
numeric_result: 3.05

variant_notation: P13Q
numeric_result: 2.05

variant_notation: V4E
numeric_result: 1.44

variant_notation: V4P
numeric_result: 2.67

variant_notation: L16P
numeric_result: 4.12

variant_notation: I15S
numeric_result: 4.88

variant_notation: Y18K
numeric_result: 2.6

variant_notation: V4S
numeric_result: 2.54

variant_notation: L3N
numeric_result: 2.42

variant_notation: N14T
numeric_result: 3.06

variant_notation: L1I
numeric_result: 2.33

variant_notation: Q8S
numeric_result: 2.51

variant_notation: P13T
numeric_result: 2.59

variant_notation: F5N
numeric_result: 2.65

variant_notation: V4C
numeric_result: 3.38

variant_notation: V4G
numeric_result: 4

variant_notation: F5E
numeric_result: 2.7

variant_notation: F5T
numeric_result: 1.96

variant_notation: K24Q
numeric_result: 4.06

variant_notation: L3P
numeric_result: 3.17

variant_notation: P13A
numeric_result: 3.85

variant_notation: I15Y
numeric_result: 3.83

variant_notation: I15Q
numeric_result: 2.46

variant_notation: A19M
numeric_result: 2.4

variant_notation: K24D
numeric_result: 2.73

variant_notation: N14A
numeric_result: 2.73

variant_notation: K24S
numeric_result: 3.98

variant_notation: F17Q
numeric_result: 3.16

variant_notation: L23S
numeric_result: 3.26

variant_notation: L16R
numeric_result: 3.61

variant_notation: G11P
numeric_result: 3.28

variant_notation: Y18S
numeric_result: 3.38

variant_notation: P13Y
numeric_result: 2.2
